Cited source: patent US20200270309A1

- measurement_notes: Half-lives and pharmacokinetic parameters of polypeptides vs HM-1
- conditions_used: in vivo; read-out: AUC0-∞
Ends that are not written are not given here.
measurement_type: AUC(0-inf) (ng·h/mL)
Return type: number; implicit unit ng·h/mL.

I have this substance here, H-RGADRAGGGGRGD [HM-1] , and I need its recorded AUC(0-inf).
32800

----------
- Test system: choroidal neovascularization
- measurement_notes: Choroidal neovascularization in rats (laser photocoagulation, FFA)
- Format: in vivo
- conditions_used: day 3 after administration, total light spot number was 297, 0.05 μM in the vitreous chamber once a day for 1 week, BN rats
Peptide text beside a SMILES is read from it. * marks the point of attachment. X74 = O=C1C=CC(=O)N1c1cccc(CCCCCCCCCCC(=O)*)c1; X60 = O=C1C=CC(=O)N1c1ccccc1CCCCCCCCCC(=O)*; X66 = O=C1C=CC(=O)N1c1cccc(CCCCCCCC(=O)*)c1; X49 = O=C1C=CC(=O)N1c1ccccc1CCCCCC(=O)*; X61 = O=C1C=CC(=O)N1c1cccc(CCCC(=O)*)c1; X79 = O=C1C=CC(=O)N1c1cccc(CCC(=O)*)c1; X75 = O=C1C=CC(=O)N1c1cccc(CC(=O)*)c1
Readings of Leakage Light spot number for the listed compounds
Reply: number alone, nothing else.

Consider the reported Leakage Light spot number for these compounds:
C[C@H](NC(=O)CNC(=O)[C@H](CCCNC(=N)N)NC(=O)Cc1cccc(N2C(=O)C=CC2=O)c1)C(=O)N[C@@H](CC(=O)O)C(=O)N[C@@H](CCCNC(=N)N)C(=O)N[C@@H](C)C(=O)NCC(=O)NCC(=O)NCC(=O)NCC(=O)N[C@@H](CCCNC(=N)N)C(=O)NCC(=O)N[C@@H](CC(=O)O)C(=O)O [X25] (X75-RGADRAGGGGRGD-OH) : 154
C[C@H](NC(=O)CNC(=O)[C@H](CCCNC(=N)N)NC(=O)CCCc1cccc(N2C(=O)C=CC2=O)c1)C(=O)N[C@@H](CC(=O)O)C(=O)N[C@@H](CCCNC(=N)N)C(=O)N[C@@H](C)C(=O)NCC(=O)NCC(=O)NCC(=O)NCC(=O)N[C@@H](CCCNC(=N)N)C(=O)NCC(=O)N[C@@H](CC(=O)O)C(=O)O [X27] (X61-RGADRAGGGGRGD-OH) : 163
C[C@H](NC(=O)CNC(=O)[C@H](CCCNC(=N)N)NC(=O)CCc1cccc(N2C(=O)C=CC2=O)c1)C(=O)N[C@@H](CC(=O)O)C(=O)N[C@@H](CCCNC(=N)N)C(=O)N[C@@H](C)C(=O)NCC(=O)NCC(=O)NCC(=O)NCC(=O)N[C@@H](CCCNC(=N)N)C(=O)NCC(=O)N[C@@H](CC(=O)O)C(=O)O [X26] (X79-RGADRAGGGGRGD-OH) : 164
C[C@H](NC(=O)CNC(=O)[C@H](CCCNC(=N)N)NC(=O)CCCCCCCc1cccc(N2C(=O)C=CC2=O)c1)C(=O)N[C@@H](CC(=O)O)C(=O)N[C@@H](CCCNC(=N)N)C(=O)N[C@@H](C)C(=O)NCC(=O)NCC(=O)NCC(=O)NCC(=O)N[C@@H](CCCNC(=N)N)C(=O)NCC(=O)N[C@@H](CC(=O)O)C(=O)O [X31] (X66-RGADRAGGGGRGD-OH) : 159
C[C@H](NC(=O)CNC(=O)[C@H](CCCNC(=N)N)NC(=O)CCCCCCCCCCc1cccc(N2C(=O)C=CC2=O)c1)C(=O)N[C@@H](CC(=O)O)C(=O)N[C@@H](CCCNC(=N)N)C(=O)N[C@@H](C)C(=O)NCC(=O)NCC(=O)NCC(=O)NCC(=O)N[C@@H](CCCNC(=N)N)C(=O)NCC(=O)N[C@@H](CC(=O)O)C(=O)O [X34] (X74-RGADRAGGGGRGD-OH) : 155
C[C@H](NC(=O)CNC(=O)[C@H](CCCNC(=N)N)NC(=O)CCCCCc1ccccc1N1C(=O)C=CC1=O)C(=O)N[C@@H](CC(=O)O)C(=O)N[C@@H](CCCNC(=N)N)C(=O)N[C@@H](C)C(=O)NCC(=O)NCC(=O)NCC(=O)NCC(=O)N[C@@H](CCCNC(=N)N)C(=O)NCC(=O)N[C@@H](CC(=O)O)C(=O)O [X17] (X49-RGADRAGGGGRGD-OH) : 163

Continue with the compound presented below.
# returns recorded Leakage Light spot number (system: choroidal neovascularization) for C[C@H](NC(=O)CNC(=O)[C@H](CCCNC(=N)N)NC(=O)CCCCCCCCCc1ccccc1N1C(=O)C=CC1=O)C(=O)N[C@@H](CC(=O)O)C(=O)N[C@@H](CCCNC(=N)N)C(=O)N[C@@H](C)C(=O)NCC(=O)NCC(=O)NCC(=O)NCC(=O)N[C@@H](CCCNC(=N)N)C(=O)NCC(=O)N[C@@H](CC(=O)O)C(=O)O [X21] (X60-RGADRAGGGGRGD-OH)
151
